- study.target: T1, hCMV gH, gL, UL128, UL130 and UL131A co-expressed in HEK293T cells (human cytomegalovirus, UniProt P12824 24-743; P16832 31-278; P16837 1-171; P16772 1-214)
- T1 construct: whole, on cells; also called gH + gL + UL128 + UL130 + UL131A; gH/gL/UL128-130 complex
- test.protocol: cell cross-competition, 20x excess; competitor 1F11-biotin
readout: Inhibition of binding (%)

Solved cases below.
[[record]]
binder = "10F7 (antibody, V domains shown, human IgG mAb; also called 10F7-biotin) VH: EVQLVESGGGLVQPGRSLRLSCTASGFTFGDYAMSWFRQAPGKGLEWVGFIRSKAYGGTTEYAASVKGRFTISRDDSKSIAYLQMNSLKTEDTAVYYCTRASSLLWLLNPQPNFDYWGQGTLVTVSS VL: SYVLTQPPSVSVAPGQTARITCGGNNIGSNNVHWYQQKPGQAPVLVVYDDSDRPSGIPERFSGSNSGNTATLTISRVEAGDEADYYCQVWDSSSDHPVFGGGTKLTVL"
readout = "Inhibition of binding (%)"
measured_value = "100%"

[[record]]
binder = "4I22 (antibody, V domains shown, human IgG mAb; also called 4I22-biotin) VH: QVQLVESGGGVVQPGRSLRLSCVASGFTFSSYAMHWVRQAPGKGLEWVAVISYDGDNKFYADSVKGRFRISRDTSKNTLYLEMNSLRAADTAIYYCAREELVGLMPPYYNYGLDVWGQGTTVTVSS VL: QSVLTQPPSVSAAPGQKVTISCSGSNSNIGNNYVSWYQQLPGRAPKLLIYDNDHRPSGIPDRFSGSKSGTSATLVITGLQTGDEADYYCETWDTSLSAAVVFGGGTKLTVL"
readout = "Inhibition of binding (%)"
measured_value = "100%"

[[record]]
binder = "8J16 (antibody, V domains shown, human IgG mAb; also called 8J16-biotin) VH: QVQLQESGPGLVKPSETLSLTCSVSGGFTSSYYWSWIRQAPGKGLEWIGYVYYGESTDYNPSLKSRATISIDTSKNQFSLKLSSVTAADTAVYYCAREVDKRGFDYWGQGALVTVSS VL: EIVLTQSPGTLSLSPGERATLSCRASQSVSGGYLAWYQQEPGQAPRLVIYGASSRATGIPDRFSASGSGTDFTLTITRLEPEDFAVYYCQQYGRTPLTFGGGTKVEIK"
readout = "Inhibition of binding (%)"
measured_value = "0%"


Kindly give each listed record's Inhibition of binding (%).
1. 8L13 (antibody, V domains shown, human IgG mAb) VH: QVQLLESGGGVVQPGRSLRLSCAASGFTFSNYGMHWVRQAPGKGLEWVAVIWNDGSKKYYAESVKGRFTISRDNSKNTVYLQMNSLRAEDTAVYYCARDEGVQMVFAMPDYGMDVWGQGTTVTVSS VL: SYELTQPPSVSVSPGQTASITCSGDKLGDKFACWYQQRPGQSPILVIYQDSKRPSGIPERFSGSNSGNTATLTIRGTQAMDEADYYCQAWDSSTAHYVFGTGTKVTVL
2. 4N10 (antibody, V domains shown, human IgG mAb; also called 4N10-biotin) VH: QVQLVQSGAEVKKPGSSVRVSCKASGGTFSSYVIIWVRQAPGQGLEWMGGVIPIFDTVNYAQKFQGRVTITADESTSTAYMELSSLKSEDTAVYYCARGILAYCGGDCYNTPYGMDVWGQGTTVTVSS VL: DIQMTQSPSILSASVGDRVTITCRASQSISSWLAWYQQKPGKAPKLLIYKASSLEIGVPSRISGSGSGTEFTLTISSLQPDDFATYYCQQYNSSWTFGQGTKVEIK
3. 10P3 (antibody, V domains shown, human IgG mAb) VH: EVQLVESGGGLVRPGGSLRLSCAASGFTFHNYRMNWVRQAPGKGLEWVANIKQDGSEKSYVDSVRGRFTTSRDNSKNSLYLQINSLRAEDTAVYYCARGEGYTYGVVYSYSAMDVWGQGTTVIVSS VL: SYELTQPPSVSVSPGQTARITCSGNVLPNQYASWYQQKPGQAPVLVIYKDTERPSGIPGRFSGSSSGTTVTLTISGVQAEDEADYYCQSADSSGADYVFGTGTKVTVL

1. 100%
2. 0%
3. 0%
